procedure.text: Cytotoxicity against African green monkey Vero A cells
Format: toxicity, cell-based
run.parameters: chlorocebus sabaeus
I'd be grateful if you could share measured CC50 for these entries.

Known CC50 results, listed for orientation:
1) Cc1cc(=O)n(Cc2cn(Cc3ccc(O)c(C=O)c3)nn2)c2ccc(Br)cc12    > 100 µM
2) CCOP(=O)(OCC)C(Nc1ccc(C)cc1)c1cc(Cn2cc(Cn3c(=O)cc(C)c4ccccc43)nn2)ccc1O (stereo not drawn)    > 100 µM
3) CCOP(=O)(OCC)C(Nc1ccc(F)cc1)c1cc(Cn2cc(Cn3c(=O)cc(C)c4cc(F)ccc43)nn2)ccc1O (stereo not drawn)    > 100 µM
4) Cc1cc(=O)n(Cc2cn(Cc3ccc(O)c(C=O)c3)nn2)c2ccc(F)cc12    > 100 µM
5) CCOP(=O)(OCC)C(Nc1ccccc1Cl)c1cc(Cn2cc(Cn3c(=O)cc(C)c4cc(Br)ccc43)nn2)ccc1O (stereo not drawn)    7.58 µM

Give me CC50 for each of these compounds, listed below.
1. CCOP(=O)(OCC)C(Nc1ccc(C)cc1)c1cc(Cn2cc(Cn3c(=O)cc(C)c4cc(F)ccc43)nn2)ccc1O (stereo not drawn)
2. CCN(CC)CCCC(C)Nc1ccnc2cc(Cl)ccc12 (stereo not drawn) [CHLOROQUINE]
3. CCOP(=O)(OCC)C(Nc1ccccc1Cl)c1cc(Cn2cc(Cn3c(=O)cc(C)c4ccccc43)nn2)ccc1O (stereo not drawn)

["> 33.3 µM", "89 µM", "24.3 µM"]

====

Test system: Staphylococcus aureus
procedure.text: Antibacterial activity against Staphylococcus aureus CIP 54127 assessed as reduction in bacterial growth by micro-broth dilution method
Type: functional
value.kind: MIC

1. CCOP(=O)(OCC)C(Nc1ccccc1OC)c1cc(Cn2cc(Cn3c(=O)cc(C)c4ccccc43)nn2)ccc1O (stereo not drawn)    260 µM
2. CCOP(=O)(OCC)C(Nc1ccccc1OC)c1cc(Cn2cc(Cn3c(=O)cc(C)c4cc(Br)ccc43)nn2)ccc1O (stereo not drawn)    230 µM
3. CCOP(=O)(OCC)C(Nc1ccccc1Cl)c1cc(Cn2cc(Cn3c(=O)cc(C)c4cc(Br)ccc43)nn2)ccc1O (stereo not drawn)    440 µM
4. CCOP(=O)(OCC)C(Nc1ccc(F)cc1)c1cc(Cn2cc(Cn3c(=O)cc(C)c4ccccc43)nn2)ccc1O (stereo not drawn)    260 µM
5. Cc1cc(=O)n(Cc2cn(Cc3ccc(O)c(C=O)c3)nn2)c2ccc(Br)cc12    11000 µM
6. Cc1cc(=O)n(Cc2cn(Cc3ccc(O)c(C=O)c3)nn2)c2ccccc12    210 µM
7. CCOP(=O)(OCC)C(Nc1ccc(C)cc1)c1cc(Cn2cc(Cn3c(=O)cc(C)c4cc(F)ccc43)nn2)ccc1O (stereo not drawn)    240 µM
8. CCOP(=O)(OCC)C(Nc1ccccc1)c1cc(Cn2cc(Cn3c(=O)cc(C)c4cc(F)ccc43)nn2)ccc1O (stereo not drawn)    510 µM
9. CCOP(=O)(OCC)C(Nc1ccc(F)cc1)c1cc(Cn2cc(Cn3c(=O)cc(C)c4cc(Br)ccc43)nn2)ccc1O (stereo not drawn)    450 µM
10. CO[C@H]1/C=C/O[C@@]2(C)Oc3c(C)c(O)c4c(O)c(c(/C=N/N5CCN(C)CC5)c(O)c4c3C2=O)NC(=O)/C(C)=C\C=C\[C@H](C)[C@H](O)[C@@H](C)[C@@H](O)[C@@H](C)[C@H](OC(C)=O)[C@@H]1C    80 µM

Give me MIC for each of these compounds, listed below.
1. CCOP(=O)(OCC)C(Nc1ccccc1Cl)c1cc(Cn2cc(Cn3c(=O)cc(C)c4ccccc43)nn2)ccc1O (stereo not drawn)
2. CC1(C)S[C@@H]2[C@H](NC(=O)[C@H](N)c3ccccc3)C(=O)N2[C@H]1C(=O)O
3. CCOP(=O)(OCC)C(Nc1ccc(I)cc1)c1cc(Cn2cc(Cn3c(=O)cc(C)c4cc(F)ccc43)nn2)ccc1O (stereo not drawn)
4. CCOP(=O)(OCC)C(Nc1ccccc1)c1cc(Cn2cc(Cn3c(=O)cc(C)c4ccccc43)nn2)ccc1O (stereo not drawn)
5. CCOP(=O)(OCC)C(Nc1ccc(C)cc1)c1cc(Cn2cc(Cn3c(=O)cc(C)c4cc(Br)ccc43)nn2)ccc1O (stereo not drawn)

1: 500 µM; 2: 270 µM; 3: 110 µM; 4: 530 µM; 5: 460 µM

Give me MIC for each of these compounds, listed below.
1. CCOP(=O)(OCC)C(Nc1ccccc1OC)c1cc(Cn2cc(Cn3c(=O)cc(C)c4cc(F)ccc43)nn2)ccc1O (stereo not drawn)
2. CCOP(=O)(OCC)C(Nc1ccccc1Br)c1cc(Cn2cc(Cn3c(=O)cc(C)c4ccccc43)nn2)ccc1O (stereo not drawn)
3. CCOP(=O)(OCC)C(Nc1ccccc1)c1cc(Cn2cc(Cn3c(=O)cc(C)c4cc(Br)ccc43)nn2)ccc1O (stereo not drawn)
4. CCOP(=O)(OCC)C(Nc1ccc(F)cc1)c1cc(Cn2cc(Cn3c(=O)cc(C)c4cc(F)ccc43)nn2)ccc1O (stereo not drawn)

1: 250 µM; 2: 120 µM; 3: 240 µM; 4: 500 µM

Give me MIC for each of these compounds, listed below.
1. Cc1cc(=O)n(Cc2cn(Cc3ccc(O)c(C=O)c3)nn2)c2ccc(F)cc12
2. CCOP(=O)(OCC)C(Nc1ccccc1Br)c1cc(Cn2cc(Cn3c(=O)cc(C)c4cc(Br)ccc43)nn2)ccc1O (stereo not drawn)
3. CCOP(=O)(OCC)C(Nc1ccccc1Cl)c1cc(Cn2cc(Cn3c(=O)cc(C)c4cc(F)ccc43)nn2)ccc1O (stereo not drawn)
4. CCOP(=O)(OCC)C(Nc1ccc(C)cc1)c1cc(Cn2cc(Cn3c(=O)cc(C)c4ccccc43)nn2)ccc1O (stereo not drawn)

3190 µM
210 µM
130 µM
520 µM

====

I'd be grateful if you could share measured MBC for these entries.
Tested on: Staphylococcus aureus
procedure.text: Bactericidal activity against Staphylococcus aureus CIP 54127
Assay type: functional
Answers are plain numbers, in µM.

Give me MBC for each of these compounds, listed below.
1. CCOP(=O)(OCC)C(Nc1ccc(C)cc1)c1cc(Cn2cc(Cn3c(=O)cc(C)c4cc(Br)ccc43)nn2)ccc1O (stereo not drawn)
2. CCOP(=O)(OCC)C(Nc1ccc(F)cc1)c1cc(Cn2cc(Cn3c(=O)cc(C)c4cc(F)ccc43)nn2)ccc1O (stereo not drawn)
3. CCOP(=O)(OCC)C(Nc1ccc(F)cc1)c1cc(Cn2cc(Cn3c(=O)cc(C)c4cc(Br)ccc43)nn2)ccc1O (stereo not drawn)
4. CCOP(=O)(OCC)C(Nc1ccccc1OC)c1cc(Cn2cc(Cn3c(=O)cc(C)c4cc(F)ccc43)nn2)ccc1O (stereo not drawn)

460
500
450
490

Give me MBC for each of these compounds, listed below.
1. CCOP(=O)(OCC)C(Nc1ccccc1Br)c1cc(Cn2cc(Cn3c(=O)cc(C)c4ccccc43)nn2)ccc1O (stereo not drawn)
2. CCOP(=O)(OCC)C(Nc1ccccc1Cl)c1cc(Cn2cc(Cn3c(=O)cc(C)c4cc(F)ccc43)nn2)ccc1O (stereo not drawn)

1: 120; 2: 260

Give me MBC for each of these compounds, listed below.
1. CCOP(=O)(OCC)C(Nc1ccc(F)cc1)c1cc(Cn2cc(Cn3c(=O)cc(C)c4ccccc43)nn2)ccc1O (stereo not drawn)
2. CCOP(=O)(OCC)C(Nc1ccccc1)c1cc(Cn2cc(Cn3c(=O)cc(C)c4cc(F)ccc43)nn2)ccc1O (stereo not drawn)

[510, 1040]

====

procedure.text: Cytotoxicity against human Huh-7 cells
Format: toxicity, cell-based
// class assignment uses CC50 with these ranges: bottom end: < 30 µM; midrange: ≥ 30 µM and < 50 µM; top end: ≥ 50 µM

Illustrative cases are given below, each with its answer.
1) CCOP(=O)(OCC)C(Nc1ccccc1)c1cc(Cn2cc(Cn3c(=O)cc(C)c4cc(F)ccc43)nn2)ccc1O (configuration not stated)    midrange
2) CCOP(=O)(OCC)C(Nc1ccc(C)cc1)c1cc(Cn2cc(Cn3c(=O)cc(C)c4ccccc43)nn2)ccc1O (configuration not stated)    bottom end
3) Cc1cc(=O)n(Cc2cn(Cc3ccc(O)c(C=O)c3)nn2)c2ccc(F)cc12    bottom end

Then there is this molecule:
// return the class label for CCOP(=O)(OCC)C(Nc1ccccc1)c1cc(Cn2cc(Cn3c(=O)cc(C)c4cc(Br)ccc43)nn2)ccc1O (configuration not stated)
top end

====

I'd be grateful if you could share measured Ratio for these entries.
System: Escherichia coli
procedure.text: Ratio of MBC to MIC for Escherichia coli CIP 53154
Assay type: functional
Numbers only.

Known Ratio results, listed for orientation:
1) CCOP(=O)(OCC)C(Nc1ccccc1OC)c1cc(Cn2cc(Cn3c(=O)cc(C)c4ccccc43)nn2)ccc1O (stereo not drawn)    2.04
2) CCOP(=O)(OCC)C(Nc1ccccc1)c1cc(Cn2cc(Cn3c(=O)cc(C)c4ccccc43)nn2)ccc1O (stereo not drawn)    1.96
3) CCOP(=O)(OCC)C(Nc1ccc(C)cc1)c1cc(Cn2cc(Cn3c(=O)cc(C)c4cc(F)ccc43)nn2)ccc1O (stereo not drawn)    1
4) CCOP(=O)(OCC)C(Nc1ccccc1Cl)c1cc(Cn2cc(Cn3c(=O)cc(C)c4ccccc43)nn2)ccc1O (stereo not drawn)    1
5) CCOP(=O)(OCC)C(Nc1ccccc1Cl)c1cc(Cn2cc(Cn3c(=O)cc(C)c4cc(Br)ccc43)nn2)ccc1O (stereo not drawn)    1
6) CCOP(=O)(OCC)C(Nc1ccc(I)cc1)c1cc(Cn2cc(Cn3c(=O)cc(C)c4cc(F)ccc43)nn2)ccc1O (stereo not drawn)    1.99

Give me Ratio for each of these compounds, listed below.
1. CCOP(=O)(OCC)C(Nc1ccccc1OC)c1cc(Cn2cc(Cn3c(=O)cc(C)c4cc(F)ccc43)nn2)ccc1O (stereo not drawn)
2. CCOP(=O)(OCC)C(Nc1ccccc1Br)c1cc(Cn2cc(Cn3c(=O)cc(C)c4ccccc43)nn2)ccc1O (stereo not drawn)

[1, 1]
